- experimental target: 人PD-L1胞外区与人IgG1-FC的融合蛋白 (human) (UniProt Q9NZQ7)
- experiment summary: FACS blocking: supernatant premixed with 500 ng PD-L1-hFc; competitor PD-1 on 293T-h-PD1 cells
measure: IC50
# output: number + unit

| binder | IC50 |
| --- | --- |
| 鼠抗体13C9 (antibody, from another filing, V domains shown) VH: QVQLKQSGAGLVKPGASVKLSCKASGYIFTEYIIHWVKQRSGQGLEWIGWFYPGSDNIKYNEKFKDKATLTADKSSSTVYMELSRLTSEDSAVYFCARHETGYFFDYWGQGTTLTVSS VL: DIVITQSPAIMSASPGEKVTMTCSASSSVSKMNWYQQKSGTSPKRWIYDTSKLASGVPSRFSGSGSGTSYSLTISSMEAEDAATYYCQQWSSNPLTFGSGTKLELKR | 1.95 µg/mL |

Look up and state reported IC50 for 鼠抗体15G10 (antibody, from another filing, V domains shown) VH: QVQLKQSGPELVKPGASVKTSCKASGYTFTNYVVHWVKQNPGQGLEWIGYVNPNNDGTIFNEKFKDKAILTSDKSSSTAYMELSSLTSEDSAVYYCARSPFAHWGQGTLVTVSA VL: QIVLTQSPASLTVSLGQRATISCSASESVDFYGTSLMQWFQQKPGQPPKLLVYTASNVDSEVPARFSGSGSGTDFSLNIHPVEEDDIAMYFCHQTRKVPYTFGGGTKLEIK
4 µg/mL

From: patent CN112759647A
